Quick list: koff per entry.
- System Under Test: T1, human TSLP (human, UniProt Q969D9 29-159)
- T1 construct: also called hTSLP; rhTSLP
- Measurement Protocol: SPR
A number alone suffices; assume s⁻¹.

| Binder | Readout Name | Measured |
| --- | --- | --- |
| BDG38.127 (antibody, V domains shown, IgG1) VH: QMQLVESGGGVVQPGRSLTLSCAASGFEFRTYGMHWVRQAPGKGLEWVGVIWYDGSATHYADSVKGRFTITRDNSKNTLNLQMNSLRAEDTAVYYCARAPQWYLTAEAFDLWGQGTMVTVSS VL: SYILTQPPSVSVAPGETATITCGGNLIGAKLVHWYQQKPGQAPVLVIYDDSDRPSRIPERFSGSNIGNTATLTISDVEAGDEADYYCQVWDYYSDTYVFGGGTKLTVL | koff | 0.000427 |
| BDG38.139 (antibody, V domains shown, IgG1) VH: QMQLVESGGGVVQPGRSLRLSCAASGFAFRTYGMHWVRQAPGKGLEWVAVIWDDGSNTHYADSVKGRFTITRDNSKNTLNLQMNSLRAEDTAVYYCVRAPQWYLSAEAFDLWGQGTMVTVSS VL: SYVLTQPPSVSVAPGETATITCGGNMIGAYLVHWYQQKPGQAPLLVIYDDVDRPARIPERFSGSNSGNTATLTISRVEAGDEADYYCQVWDHNSDHMVFGGGTKLTVL | koff | 2.54e-05 |
| BDG38.118 (antibody, V domains shown, IgG1) VH: QMQLVESGGGVVQPGRSLRLSCAASGFEFRTYGMHWVRQAPGKGLEWVGVIWYDGSATHYADSVKGRFTITRDNSKNTLNLQMNSLRVEDTAVYYCVRAPQWYLTAEAFDLWGQGTMVTVSS VL: SYILTQPPSVSVAPGETATITCGGNLIGARLVHWYQQKPGQAPVLVIYDDSDRPSRIPERFSGSNIGNTATLTISDVEEGDEADYYCQVWDYSSDHYVFGGGTKLTVL | koff | 0.00043 |
| BDG38.128 (antibody, V domains shown, IgG1) VH: QMQLVESGGGVVQPGRSLTLSCAASGFEFRTYGMHWVRQAPGKGLEWVAVIWDDGSNTHYADSVKGRFTITRDNSKNTLNLQMNSLRVEDTAVYYCVRAPQWYLTAEAFDLWGQGTMVTVSS VL: SYILTQPPSVSVAPGETATITCGGNLIGAKLVHWYQQKPGQAPVLVIYDDSDRPSRIPERFSGSNSGNTATLTISDVEEGDEADYYCQVWDYYADTMVFGGGTKLTVL | koff | 3.86e-05 |
| BDG38.125 (antibody, V domains shown, IgG1) VH: QMQLVESGGGVVQPGRSLRLSCAASGFEFRTYGMHWVRQAPGKGLEWVAVIWDDGSNTHYADSVKGRFTITRDNSKNTLNLQMNSLRAEDTAVYYCVRAPQWYLTAEAFDLWGQGTMVTVSS VL: SYVLTQPPSVSVAPGETATITCGGNLIGARLVHWYQQKPGQAPVLVIYDDSDRPSRIPERFSGSNIGNTATLTIERVEEGDEADYYCQVWDYSSDHMVFGGGTKLTVL | koff | 0.000121 |

Ask | Which value of koff has been reported for BDG38.132 (antibody, V domains shown, IgG1) VH: QMQLVESGGGVVQPGRSLRLSCAASGFEFRTYGMHWVRQAPGKGLEWVGVIWDDGSNTHYADSVKGRFTITRDNSKNTLNLQMNSLRAEDTAVYYCVRAPQWYLTAEAFDLWGQGTMVTVSS VL: SYILTQPPSVSVAPGETATITCGGNLIGARLVHWYQQKPGQAPVLVIYDDSDRPSRIPERFSGSNIGNTATLTISRVEAGDEADYYCQVWDYSSDHMVFGGGTKLTVL in the records?
Reply | 3.55e-05

Ask | Which value of koff has been reported for BDG38.126 (antibody, V domains shown, IgG1) VH: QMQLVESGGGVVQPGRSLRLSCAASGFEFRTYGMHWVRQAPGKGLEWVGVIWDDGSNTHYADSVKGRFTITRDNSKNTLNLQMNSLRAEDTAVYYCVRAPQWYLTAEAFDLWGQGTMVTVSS VL: SYILTQPPSVSVAPGQTARITCGGNLIGAKLVHWYQQKPGQAPVLVIYDDSDRPSRIPERFSGSNIGNTATLTIERVEEGDEADYYCQVWDYSSDHMVFGGGTKLTVL in the records?
Reply | 6.72e-05
